Percentage transported in 6 h. 241 Am by entry:
# experiment: supported liquid membrane transport into aqueous reextraction solution
# Format: physicochemical
# stated.conditions: 6 h; supported liquid membrane, 0.001 or 0.0001M calixarene (CMPO 10^-2 M)
readout.label: Percentage transported in 6 h. 241 Am (%)

[[record]]
line_notation = "CCCCCCCCCCOc1c2cc(NC(=O)CP(=O)(c3ccccc3)c3ccccc3)cc1Cc1cc(NC(=O)CP(=O)(c3ccccc3)c3ccccc3)cc(c1OCCCCCCCCCC)Cc1cc(NC(=O)CP(=O)(c3ccccc3)c3ccccc3)cc(c1OCCCCCCCCCC)Cc1cc(NC(=O)CP(=O)(c3ccccc3)c3ccccc3)cc(c1OCCCCCCCCCC)C2"
result = 95.5

[[record]]
line_notation = "CCCCCCCCCCCCCCCCOc1c2cc(NC(=O)CP(=O)(c3ccccc3)c3ccccc3)cc1Cc1cc(NC(=O)CP(=O)(c3ccccc3)c3ccccc3)cc(c1OCCCCCCCCCCCCCCCC)Cc1cc(NC(=O)CP(=O)(c3ccccc3)c3ccccc3)cc(c1OCCCCCCCCCCCCCCCC)Cc1cc(NC(=O)CP(=O)(c3ccccc3)c3ccccc3)cc(c1OCCCCCCCCCCCCCCCC)C2"
result = 3


---

Percentage transported in 6 h. 241 Am by entry:
# experiment: supported liquid membrane transport into aqueous reextraction solution
# Format: physicochemical
# stated.conditions: 6 h; supported liquid membrane, 0.001 or 0.0001M calixarene (CMPO 10^-2 M)
readout.label: Percentage transported in 6 h. 241 Am (%)

[[record]]
line_notation = "CCCCCCCCCCOc1c2cc(NC(=O)CP(=O)(c3ccccc3)c3ccccc3)cc1Cc1cc(NC(=O)CP(=O)(c3ccccc3)c3ccccc3)cc(c1OC)Cc1cc(NC(=O)CP(=O)(c3ccccc3)c3ccccc3)cc(c1OCCCCCCCCCC)Cc1cc(NC(=O)CP(=O)(c3ccccc3)c3ccccc3)cc(c1OC)C2"
result = 94.2

[[record]]
line_notation = "CCCCCCCCCCCCCCOc1c2cc(NC(=O)CP(=O)(c3ccccc3)c3ccccc3)cc1Cc1cc(NC(=O)CP(=O)(c3ccccc3)c3ccccc3)cc(c1OCCCCCCCCCCCCCC)Cc1cc(NC(=O)CP(=O)(c3ccccc3)c3ccccc3)cc(c1OCCCCCCCCCCCCCC)Cc1cc(NC(=O)CP(=O)(c3ccccc3)c3ccccc3)cc(c1OCCCCCCCCCCCCCC)C2"
result = 98

[[record]]
line_notation = "CCCCCCCCCCCCOc1c2cc(NC(=O)CP(=O)(c3ccccc3)c3ccccc3)cc1Cc1cc(NC(=O)CP(=O)(c3ccccc3)c3ccccc3)cc(c1OCCCCCCCCCCCC)Cc1cc(NC(=O)CP(=O)(c3ccccc3)c3ccccc3)cc(c1OCCCCCCCCCCCC)Cc1cc(NC(=O)CP(=O)(c3ccccc3)c3ccccc3)cc(c1OCCCCCCCCCCCC)C2"
result = 97


---

# experiment: supported liquid membrane transport into aqueous reextraction solution
# Assay type: physicochemical
# stated.conditions: 6 h; supported liquid membrane, 0.001 or 0.0001M calixarene (CMPO 10^-2 M)
Percentage transported in 6 h. 241 Am by entry:
readout.label: Percentage transported in 6 h. 241 Am (%)

[[record]]
compound = "CCCCCCCCP(=O)(CC(=O)N(CC(C)C)CC(C)C)c1ccccc1 (centres unmarked) [CMPO, reference compound]"
value_units = "%"
result = 9.8

[[record]]
compound = "CCCCCOc1c2cc(NC(=O)CP(=O)(c3ccccc3)c3ccccc3)cc1Cc1cc(NC(=O)CP(=O)(c3ccccc3)c3ccccc3)cc(c1OCCCCC)Cc1cc(NC(=O)CP(=O)(c3ccccc3)c3ccccc3)cc(c1OCCCCC)Cc1cc(NC(=O)CP(=O)(c3ccccc3)c3ccccc3)cc(c1OCCCCC)C2 [Compound 8]"
value_units = "%"
result = 99

[[record]]
compound = "CCCCCCCCOc1c2cc(NC(=O)CP(=O)(c3ccccc3)c3ccccc3)cc1Cc1cc(NC(=O)CP(=O)(c3ccccc3)c3ccccc3)cc(c1OC)Cc1cc(NC(=O)CP(=O)(c3ccccc3)c3ccccc3)cc(c1OCCCCCCCC)Cc1cc(NC(=O)CP(=O)(c3ccccc3)c3ccccc3)cc(c1OC)C2 [Compound 9]"
value_units = "%"
result = 91.3

[[record]]
compound = "CCCCCCCCCCCCCCCCCCOc1c2cc(NC(=O)CP(=O)(c3ccccc3)c3ccccc3)cc1Cc1cc(NC(=O)CP(=O)(c3ccccc3)c3ccccc3)cc(c1OC)Cc1cc(NC(=O)CP(=O)(c3ccccc3)c3ccccc3)cc(c1OCCCCCCCCCCCCCCCCCC)Cc1cc(NC(=O)CP(=O)(c3ccccc3)c3ccccc3)cc(c1OC)C2 [Compound 7]"
value_units = "%"
result = 92.6

[[record]]
compound = "CCCCC(CC)COc1c2cc(NC(=O)CP(=O)(c3ccccc3)c3ccccc3)cc1Cc1cc(NC(=O)CP(=O)(c3ccccc3)c3ccccc3)cc(c1OCC(CC)CCCC)Cc1cc(NC(=O)CP(=O)(c3ccccc3)c3ccccc3)cc(c1OCC(CC)CCCC)Cc1cc(NC(=O)CP(=O)(c3ccccc3)c3ccccc3)cc(c1OCC(CC)CCCC)C2 (centres unmarked) [Compound 10]"
value_units = "%"
result = 27.8


---

# experiment: supported liquid membrane transport into aqueous reextraction solution
# Type: physicochemical
# stated.conditions: CELGARD 2500 membrane, nitrophenylhexyl ether with 0.001 or 0.0001M calixarene (CMPO 10^-2 M); reextraction 1 mole/l methylene diphosphonic acid
Parameter threshold = 3 cm/h. Response is Fulfilled when Permeability (cm/h) 241 Am meets or exceeds it, else Not fulfilled.

[[record]]
compound = "CCCCCCCCP(=O)(CC(=O)N(CC(C)C)CC(C)C)c1ccccc1 (centres unmarked) [CMPO, reference compound]"
class = "Not fulfilled"

[[record]]
compound = "CCCCCCCCCCCCCCOc1c2cc(NC(=O)CP(=O)(c3ccccc3)c3ccccc3)cc1Cc1cc(NC(=O)CP(=O)(c3ccccc3)c3ccccc3)cc(c1OCCCCCCCCCCCCCC)Cc1cc(NC(=O)CP(=O)(c3ccccc3)c3ccccc3)cc(c1OCCCCCCCCCCCCCC)Cc1cc(NC(=O)CP(=O)(c3ccccc3)c3ccccc3)cc(c1OCCCCCCCCCCCCCC)C2"
class = "Fulfilled"

[[record]]
compound = "CCCCC(CC)COc1c2cc(NC(=O)CP(=O)(c3ccccc3)c3ccccc3)cc1Cc1cc(NC(=O)CP(=O)(c3ccccc3)c3ccccc3)cc(c1OCC(CC)CCCC)Cc1cc(NC(=O)CP(=O)(c3ccccc3)c3ccccc3)cc(c1OCC(CC)CCCC)Cc1cc(NC(=O)CP(=O)(c3ccccc3)c3ccccc3)cc(c1OCC(CC)CCCC)C2 (centres unmarked)"
class = "Not fulfilled"

[[record]]
compound = "CCCCCCCCCCCCOc1c2cc(NC(=O)CP(=O)(c3ccccc3)c3ccccc3)cc1Cc1cc(NC(=O)CP(=O)(c3ccccc3)c3ccccc3)cc(c1OCCCCCCCCCCCC)Cc1cc(NC(=O)CP(=O)(c3ccccc3)c3ccccc3)cc(c1OCCCCCCCCCCCC)Cc1cc(NC(=O)CP(=O)(c3ccccc3)c3ccccc3)cc(c1OCCCCCCCCCCCC)C2"
class = "Fulfilled"

[[record]]
compound = "CCCCCOc1c2cc(NC(=O)CP(=O)(c3ccccc3)c3ccccc3)cc1Cc1cc(NC(=O)CP(=O)(c3ccccc3)c3ccccc3)cc(c1OCCCCC)Cc1cc(NC(=O)CP(=O)(c3ccccc3)c3ccccc3)cc(c1OCCCCC)Cc1cc(NC(=O)CP(=O)(c3ccccc3)c3ccccc3)cc(c1OCCCCC)C2"
class = "Fulfilled"

[[record]]
compound = "CCCCCCCCCCOc1c2cc(NC(=O)CP(=O)(c3ccccc3)c3ccccc3)cc1Cc1cc(NC(=O)CP(=O)(c3ccccc3)c3ccccc3)cc(c1OCCCCCCCCCC)Cc1cc(NC(=O)CP(=O)(c3ccccc3)c3ccccc3)cc(c1OCCCCCCCCCC)Cc1cc(NC(=O)CP(=O)(c3ccccc3)c3ccccc3)cc(c1OCCCCCCCCCC)C2"
class = "Fulfilled"

[[record]]
compound = "CCCCCCCCCCCCCCCCCCOc1c2cc(NC(=O)CP(=O)(c3ccccc3)c3ccccc3)cc1Cc1cc(NC(=O)CP(=O)(c3ccccc3)c3ccccc3)cc(c1OC)Cc1cc(NC(=O)CP(=O)(c3ccccc3)c3ccccc3)cc(c1OCCCCCCCCCCCCCCCCCC)Cc1cc(NC(=O)CP(=O)(c3ccccc3)c3ccccc3)cc(c1OC)C2"
class = "Fulfilled"

[[record]]
compound = "CCCCCCCCCCOc1c2cc(NC(=O)CP(=O)(c3ccccc3)c3ccccc3)cc1Cc1cc(NC(=O)CP(=O)(c3ccccc3)c3ccccc3)cc(c1OC)Cc1cc(NC(=O)CP(=O)(c3ccccc3)c3ccccc3)cc(c1OCCCCCCCCCC)Cc1cc(NC(=O)CP(=O)(c3ccccc3)c3ccccc3)cc(c1OC)C2"
class = "Not fulfilled"


---

# experiment: supported liquid membrane transport into aqueous reextraction solution
# Type: physicochemical
# stated.conditions: CELGARD 2500 membrane, nitrophenylhexyl ether with 0.001 or 0.0001M calixarene (CMPO 10^-2 M); reextraction 1 mole/l methylene diphosphonic acid
Permeability (cm/h) 241 Am by entry:
readout.label: Permeability (cm/h) 241 Am

[[record]]
line_notation = "CCCCCCCCOc1c2cc(NC(=O)CP(=O)(c3ccccc3)c3ccccc3)cc1Cc1cc(NC(=O)CP(=O)(c3ccccc3)c3ccccc3)cc(c1OC)Cc1cc(NC(=O)CP(=O)(c3ccccc3)c3ccccc3)cc(c1OCCCCCCCC)Cc1cc(NC(=O)CP(=O)(c3ccccc3)c3ccccc3)cc(c1OC)C2"
result = "2.9 cm/h"

[[record]]
line_notation = "CCCCCCCCCCCCCCCCOc1c2cc(NC(=O)CP(=O)(c3ccccc3)c3ccccc3)cc1Cc1cc(NC(=O)CP(=O)(c3ccccc3)c3ccccc3)cc(c1OCCCCCCCCCCCCCCCC)Cc1cc(NC(=O)CP(=O)(c3ccccc3)c3ccccc3)cc(c1OCCCCCCCCCCCCCCCC)Cc1cc(NC(=O)CP(=O)(c3ccccc3)c3ccccc3)cc(c1OCCCCCCCCCCCCCCCC)C2"
result = "0.08 cm/h"

